# target_desc: T1, human SIRPα v1-Fc (SIRPα1 extracellular domain fused to human IGHG1_Fc) (human, UniProt P78324 31-373; P0DOX5 223-449 = IgG part)
# T1 construct: also called V1 (e.g. SIRPα1); SIRPα V1: DLN
# test_name: BLI Octet, antigen-Fc on biosensor;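 note: antigen captured on the biosensor tip and then immersed in solutions of the test antibodies, which act as the analyte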
readout_kind: kon

binder="SIRPAB-9 (antibody, human IgG1, kappa, V domains shown) VH: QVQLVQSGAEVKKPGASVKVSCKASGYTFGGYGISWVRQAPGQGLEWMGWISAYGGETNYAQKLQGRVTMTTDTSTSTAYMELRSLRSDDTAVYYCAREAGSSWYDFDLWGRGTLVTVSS VL: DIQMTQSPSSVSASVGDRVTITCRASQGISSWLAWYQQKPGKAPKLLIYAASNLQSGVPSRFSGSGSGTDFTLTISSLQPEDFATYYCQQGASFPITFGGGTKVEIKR" meas_value="1.06e+06 M⁻¹ s⁻¹"
binder="SIRPAB-7 (antibody, human IgG1, kappa, V domains shown) VH: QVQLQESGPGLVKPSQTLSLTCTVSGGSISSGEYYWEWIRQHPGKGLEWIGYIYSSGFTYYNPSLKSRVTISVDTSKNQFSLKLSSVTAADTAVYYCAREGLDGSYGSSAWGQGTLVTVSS VL: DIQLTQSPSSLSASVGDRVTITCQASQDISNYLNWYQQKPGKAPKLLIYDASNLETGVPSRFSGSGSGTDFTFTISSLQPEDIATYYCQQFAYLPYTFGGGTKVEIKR" meas_value="1.84e+06 M⁻¹ s⁻¹"
binder="SIRPAB-13 (antibody, human IgG1, kappa, V domains shown) VH: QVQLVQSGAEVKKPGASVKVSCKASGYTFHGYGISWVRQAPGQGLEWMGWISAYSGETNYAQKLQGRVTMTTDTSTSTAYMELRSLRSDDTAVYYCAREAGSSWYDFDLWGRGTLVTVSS VL: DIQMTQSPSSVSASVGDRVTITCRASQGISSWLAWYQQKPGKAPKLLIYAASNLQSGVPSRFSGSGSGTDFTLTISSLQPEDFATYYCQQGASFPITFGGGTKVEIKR" meas_value="1.24e+06 M⁻¹ s⁻¹"
binder="SIRPAB-10 (antibody, human IgG1, kappa, V domains shown) VH: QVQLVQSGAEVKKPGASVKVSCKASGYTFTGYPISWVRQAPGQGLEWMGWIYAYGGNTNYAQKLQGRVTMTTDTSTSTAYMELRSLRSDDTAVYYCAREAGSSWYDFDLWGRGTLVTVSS VL: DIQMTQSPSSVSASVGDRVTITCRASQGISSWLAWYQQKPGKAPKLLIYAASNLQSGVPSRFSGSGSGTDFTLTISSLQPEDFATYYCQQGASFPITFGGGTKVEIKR" meas_value="1.4e+06 M⁻¹ s⁻¹"
